Consider the following pIC50 values measured on Full length Human HDAC8 (Homo sapiens, UniProt Q9BY41).
Sequence (Q9BY41 whole entry): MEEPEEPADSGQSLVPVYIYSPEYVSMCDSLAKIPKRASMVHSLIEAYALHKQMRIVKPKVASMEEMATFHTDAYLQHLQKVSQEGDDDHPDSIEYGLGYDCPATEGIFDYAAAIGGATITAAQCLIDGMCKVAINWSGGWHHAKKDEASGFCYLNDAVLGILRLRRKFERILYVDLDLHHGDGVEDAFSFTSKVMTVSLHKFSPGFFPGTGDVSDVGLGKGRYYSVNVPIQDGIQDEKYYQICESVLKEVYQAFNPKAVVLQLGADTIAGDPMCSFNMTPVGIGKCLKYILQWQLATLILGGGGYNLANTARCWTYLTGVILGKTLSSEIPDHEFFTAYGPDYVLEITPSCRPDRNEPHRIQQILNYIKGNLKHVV
pIC50: −log10 of the molar value.

Would you please look over these solved cases?
CC[C@H]1Cc2c(F)cc(C(=O)NO)cc2CN1C[C@@H]1C[C@H]2CC[C@@H](C1)N2C (single isomer, unassigned): 5.00 to 6.00
O=C(NO)c1cc(F)c2c(c1)CCN(C1CCC3(CCCC3)CC1)C2: 4.00 to 5.00
O=C(NO)c1cc(F)c2c(c1)CCN([C@H]1CCNC3(CCC3)C1)C2 (single isomer, unassigned): 5.00 to 6.00

# input Give measured pIC50 for `O=C(NO)c1ccc2c(c1)C[C@H]1COCCN1C2` (Full length Human HDAC8 (Homo sapiens, UniProt Q9BY41)).
# output 5.00 to 6.00

----------
- system_name: Full length Human HDAC6 (Homo sapiens)
- Sequence (Q9UBN7 1-1215): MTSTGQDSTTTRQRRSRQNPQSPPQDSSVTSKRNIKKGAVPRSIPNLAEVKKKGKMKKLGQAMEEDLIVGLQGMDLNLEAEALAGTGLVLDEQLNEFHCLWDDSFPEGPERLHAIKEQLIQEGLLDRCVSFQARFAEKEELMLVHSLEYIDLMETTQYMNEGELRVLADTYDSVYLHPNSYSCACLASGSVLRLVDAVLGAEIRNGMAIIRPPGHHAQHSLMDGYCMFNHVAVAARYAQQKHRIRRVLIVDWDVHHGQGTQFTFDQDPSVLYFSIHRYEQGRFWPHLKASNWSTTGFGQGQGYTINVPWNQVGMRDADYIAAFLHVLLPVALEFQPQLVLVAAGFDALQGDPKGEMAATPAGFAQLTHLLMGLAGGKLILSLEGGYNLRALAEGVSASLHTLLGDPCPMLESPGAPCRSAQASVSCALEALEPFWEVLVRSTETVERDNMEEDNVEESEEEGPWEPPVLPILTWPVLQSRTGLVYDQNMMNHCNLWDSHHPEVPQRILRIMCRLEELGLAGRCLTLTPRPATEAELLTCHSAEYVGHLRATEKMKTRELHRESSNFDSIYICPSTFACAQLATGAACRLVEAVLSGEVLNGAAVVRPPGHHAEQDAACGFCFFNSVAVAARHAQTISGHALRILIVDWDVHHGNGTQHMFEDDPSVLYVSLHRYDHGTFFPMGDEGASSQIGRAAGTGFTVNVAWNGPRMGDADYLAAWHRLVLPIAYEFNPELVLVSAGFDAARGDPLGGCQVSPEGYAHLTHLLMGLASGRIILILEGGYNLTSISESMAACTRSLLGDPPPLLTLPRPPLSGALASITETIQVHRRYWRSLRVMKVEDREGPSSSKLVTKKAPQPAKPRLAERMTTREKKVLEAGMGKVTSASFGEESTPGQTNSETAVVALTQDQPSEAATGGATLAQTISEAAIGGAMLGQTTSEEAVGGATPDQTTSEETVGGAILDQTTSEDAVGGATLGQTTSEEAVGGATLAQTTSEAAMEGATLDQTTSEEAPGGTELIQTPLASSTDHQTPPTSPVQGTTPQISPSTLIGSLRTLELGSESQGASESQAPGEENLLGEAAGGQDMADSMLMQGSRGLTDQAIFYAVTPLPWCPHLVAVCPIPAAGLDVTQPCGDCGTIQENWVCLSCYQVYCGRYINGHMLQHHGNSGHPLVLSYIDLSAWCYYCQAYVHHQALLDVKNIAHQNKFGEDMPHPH
pIC50: −log10 of the molar value.
readout_type: pIC50

O=C(NO)c1cc(F)c2c(c1)CCN([C@@H]1CCN(Cc3ccccc3)C3(CCC3)C1)C2 (single isomer, unassigned) [Compound 444]: 7.00 to 9.00

# input Provide one value: measured pIC50 of O=C(NO)c1cc(F)c2c(c1)CCN(C1CCC13CCC3)C2 (stereo not drawn) [Compound 299]
# output 7.00 to 9.00

# input Provide one value: measured pIC50 of CC[C@H]1Cc2c(F)cc(C(=O)NO)cc2CN1C[C@]12CN[C@H](CO1)C2 (single isomer, unassigned) [Compound 549]
# output 7.00 to 9.00

# input Provide one value: measured pIC50 of CC[C@@H]1Cc2c(F)cc(C(=O)NO)cc2CN1CC1CCCCC1 (single isomer, unassigned) [Compound 517]
# output 7.00 to 9.00

# input Provide one value: measured pIC50 of C[C@@H]1CC[C@H]2c3c(F)cc(C(=O)NO)cc3CCN12 (single isomer, unassigned) [Compound 158]
# output 7.00 to 9.00

# input Provide one value: measured pIC50 of CN1CC2(CCC(N3CCc4cc(C(=O)NO)cc(F)c4C3)CC2)C1 [Compound 427]
# output 7.00 to 9.00

# input Provide one value: measured pIC50 of O=C(NO)c1cc(F)c2c(c1)CCN1CCC[C@H]21 [Compound 80]
# output 6.00 to 7.00

# input Provide one value: measured pIC50 of CC[C@H]1Cc2c(F)cc(C(=O)NO)cc2CN1C[C@H]1CCCCO1 (single isomer, unassigned) [Compound 231]
# output 7.00 to 9.00

# input Provide one value: measured pIC50 of O=C(NO)c1cc(F)c2c(c1)CCN([C@H]1C[C@@]3(CCCCO3)C1)C2 (single isomer, unassigned) [Compound 340]
# output 7.00 to 9.00

Data origin, for the record: patent US12655106B2
